Source of measurements: PubChem BioAssay

Biological target: NADPH oxidase 4 (Homo sapiens)
Test: NOX4-dependent H2O2 signal modulators, primary screen, NOX inhibitor project, cell-based, HEK293-NOX4, tetracycline-induced, Amplex Red fluorescence (AID 1160)
Conditions: 45 min, higher = more signal, called active from +8 up or from −8 down
Parameter threshold = -0.3. Response is True when z-score meets or exceeds it, else False.

Recorded results for 6 molecules are shown here.
CCCC=C(CCC)[C@@H](NS(=O)(=O)c1cccc2cccnc12)c1ccc(-c2ccccc2)cc1    True
COc1cc(C(O)C2C=CC3C(=O)N(Cc4ccccc4)C(=O)C3N2n2cnnc2)cc(OC)c1OC (configuration not stated)    False
COCCOC(=O)N1C(=O)[C@@]2(c3cc(C#Cc4ccc(OC)cc4)ccc31)[C@H](C(=O)NC[C@H](O)c1ccccc1)[C@H]1C(=O)O[C@H](c3ccccc3)[C@H](c3ccccc3)N1[C@@H]2c1ccc(OCCO)cc1    False
CC1CC/C=C\[C@H]2OC34C=CCN(CCN5CCOCC5)C(=O)[C@H]3N(C(C)CO)C(=O)[C@@H]4C2C(=O)O1 (some centres not stated)    False
COCCOC(=O)N1C(=O)[C@@]2(c3ccccc31)[C@H](c1ccc(OCCO)cc1)N1[C@H](c3ccccc3)[C@H](c3ccccc3)OC(=O)[C@H]1[C@@H]2C(=O)N1CCCCCCC1    True
COCC1C2CC[C@H]3C(OCc4ccc(OC)cc4)OC[C@]4(C)[C@H]3C2=C(CN4C(=O)OC(C)(C)C)[C@H](C)C1COC (some centres not stated)    False

Determine whether measured z-score meets or exceeds -0.3 for COC(=O)C1N=C(c2ccc(OCCCO)cc2)N(c2ccccc2)O1 (configuration not stated)
True

###

composite z-score for assorted molecules
Test: small-molecule microarray binders of probe aEGFR, primary screen, biochemical, biotinylated probe, 635/667 nm fluorescence (AID 1097);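 note: probe is a biotinylated anti-EGFR antibody binding compounds printed on slides; score combines fluorescence near 667 nm and signal to noise of each spot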
Conditions: higher = more signal
// keep it numeric: no unit symbol after the value

// worked examples, composite z-score included
CC(C)c1ccc(NN2C(C(O)Cc3ccccc3)C=CC3C(=O)N(c4ccccc4)C(=O)C32)cc1 (stereo not given)    0.205
COc1cc(CO)cc(I)c1O[C@H]1C=C(C(=O)NCCO)C[C@@H](NCC2CCCCC2)[C@@H]1O    -0.067
CCN(CC)c1ccc(N2CC=CC34O[C@@H]5/C=C\CCC(C)OC(=O)C5[C@H]3C(=O)N(C(C)CO)[C@@H]4C2=O)cc1 (stereo not given in full)    -0.206
C#C[C@@H](CC)O[Si](C#CCCCC#N)(C(C)C)C(C)C    -0.128
CC(=O)NCCCC[C@@H]1NC(=O)[C@@H]2C[C@H](C(=O)NCCCCCCN)[C@H](c3cccc(OCCO)c3)N2C1=O    -0.175
C=C(COC)/C(=C/C[C@@H](OC(=O)c1ccncc1)c1ccccc1OCCO)c1cc(C(=O)OC)ccc1OC    -0.178
C=C(COC)C(=O)CC[C@@H](OC(=O)c1cccnc1)c1ccccc1OCCO    -0.0828
[N-]=[N+]=NCc1ccccc1C[C@]1(C(=O)N2CCOCC2)COC(c2ccc(OCCCO)cc2)=N1    0.0706

Which measured composite z-score value corresponds to C=CCNC(=O)[C@H]1[C@@H]2C(=O)O[C@@H](c3ccccc3)[C@@H](c3ccccc3)N2[C@@H](c2ccc(OCCO)cc2)[C@]12C(=O)Nc1ccc(C#CCNC(N)=O)cc12 ?
0.0562

Which measured composite z-score value corresponds to COC(=O)[C@@]1(Cc2ccccc2)[C@H]2c3cc(C(=O)N(C)C)n(CCn4cc([N+](=O)[O-])nc4C)c3C[C@H]2CN1C(=O)c1ccccc1 ?
-0.0088

Which measured composite z-score value corresponds to [N-]=[N+]=NCc1ccccc1C[C@@]1(C(=O)N2CCCCC2)N=C(c2ccc(OCCCO)cc2)O[C@@H]1c1ccccc1CN=[N+]=[N-] ?
-0.0833

Which measured composite z-score value corresponds to CO[C@H]1O[C@H](CO)[C@@H](OC(=O)Nc2cccc(F)c2)[C@H](OC(=O)Nc2ccccc2-c2ccccc2)[C@H]1OC(=O)Nc1ccccc1-c1ccccc1 ?
-0.0225

Which measured composite z-score value corresponds to C=C(/C(=C/C[C@@H](OC(C)=O)c1ccc(OCCO)cc1)c1cc(C(=O)OC)ccc1OC)C(C)C ?
-0.176

Which measured composite z-score value corresponds to C[C@]1(C(=O)O)c2ccccc2C(=O)N(Cc2ccc(OC(F)(F)F)cc2)[C@H]1c1ccc(CO)cc1 ?
-0.179

Which measured composite z-score value corresponds to COc1cc(NN2C(C(O)c3cc(OC)c(OC)c(OC)c3)C=CC3C(=O)N(c4ccccc4)C(=O)C32)cc(OC)c1OC (stereo not given) ?
0.139

###

Test: small-molecule microarray binders of probe aLefty2, primary screen, biochemical, biotinylated probe, 635/667 nm fluorescence (AID 1094);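 note: score merges spot fluorescence near 667 nm with spot signal-to-noise ratio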
Conditions: higher = more signal
property label: composite z-score
// keep it numeric: no unit symbol after the value

// worked examples, composite z-score included
COc1cc2c(cc1O)C(c1cccs1)N(Cc1sc3ccccc3c1Cl)CC2 (centres undefined)    0.105
CC(C)=CCCC(C)=CC(O)C1C=CC2C(=O)N(c3ccccc3)C(=O)C2N1Nc1ccccc1F (centres undefined)    -0.166
CCOC(=O)C[C@H]1[C@H](OC(=O)c2ccccc2-c2ccccc2)[C@@H](NC(=O)c2ccccc2)c2cc(OCCCO)ccc2N1C(=O)c1ccccc1    -0.214

Which measured composite z-score value corresponds to COc1ccc([Si](C)(C)[C@H]2[C@H](CCO)O[C@@]3(C(=O)N(Cc4ccccc4)c4ccc(N5C(=O)c6ccccc6Oc6ccccc65)cc43)[C@@H]2C)cc1 ?
-0.114

###

Assay: RPMI8226 myeloma cell viability, profiling panel, resazurin fluorescence, basal, 24 h, PK04 Diversity Set (AID 1180);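 note: RPMI8826 multiple myeloma cell line at 5000 cells per well; test concentration not given here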
Conditions: higher = more signal
property label: z-score
// keep it numeric: no unit symbol after the value

COC(=O)C(CC#Cc1ccc2c(c1)[C@]1(C(=O)N2)[C@H](C(=O)Nc2nc3ccccc3s2)[C@H]2C(=O)O[C@H](c3ccccc3)[C@H](c3ccccc3)N2[C@@H]1c1ccc(OCCO)cc1)C(=O)OC    -2.38
COc1ccc(C(O)C2C=CC3C(=O)N(c4ccccc4)C(=O)C3N2Nc2ccccc2)cc1 (stereo not drawn)    -0.841

# ---- query molecule ----
Which measured z-score value corresponds to C=CCOC(=O)[C@H]1[C@@H]2C(=O)O[C@@H](c3ccccc3)[C@@H](c3ccccc3)N2[C@@H](c2ccc(OCCOC(=O)[C@H]3C[C@H]4C(=O)N[C@@H](CCCCNC(C)=O)C(=O)N4[C@H]3c3cccc(OCCO)c3)cc2)[C@]12C(=O)Nc1ccc(I)cc12 ?
-0.538

###

Target: Left-right determination factor 2 (Homo sapiens) (UniProt O00292)
Sequence (O00292 whole entry, looked up): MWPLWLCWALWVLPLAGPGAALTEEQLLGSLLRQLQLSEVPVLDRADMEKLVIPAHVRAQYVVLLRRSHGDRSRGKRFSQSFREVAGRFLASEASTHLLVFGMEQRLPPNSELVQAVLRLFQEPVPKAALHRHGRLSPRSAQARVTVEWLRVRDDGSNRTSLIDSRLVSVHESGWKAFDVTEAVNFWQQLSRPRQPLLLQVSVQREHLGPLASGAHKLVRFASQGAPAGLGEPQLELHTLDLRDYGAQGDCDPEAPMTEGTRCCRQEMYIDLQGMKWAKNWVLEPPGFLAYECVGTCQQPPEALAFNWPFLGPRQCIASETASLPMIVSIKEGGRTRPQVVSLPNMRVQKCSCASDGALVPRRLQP
Assay: LEFTY2 binders on small-molecule microarrays, primary screen, biochemical, small-molecule microarray, 635 nm fluorescence scan (AID 1110)
Conditions: LEFTY2 binding, higher = more signal
Parameter threshold = -0.3. Response is yes when composite z-score meets or exceeds it, else no.

Recorded results for 2 compounds are shown here.
C[C@]1(C(=O)O)c2ccccc2C(=O)N(Cc2ccc(OC(F)(F)F)cc2)[C@H]1c1ccc(CO)cc1    no
CCCCNC(=O)c1ccc(C#C[Si](C(C)C)(C(C)C)C(C)C)c(OC(C)=O)c1    yes

Determine whether measured composite z-score meets or exceeds -0.3 for C#C[C@@H](CC)O[Si](C#CCCCC#N)(C(C)C)C(C)C
yes

Determine whether measured composite z-score meets or exceeds -0.3 for CC=CC(O)C1C=CC2C(=O)NC(=O)C2N1Nc1ccccn1 (configuration not stated)
yes

Determine whether measured composite z-score meets or exceeds -0.3 for CCCCC=C[C@@H](NC(=O)c1ccccc1)c1ccccc1
yes

Determine whether measured composite z-score meets or exceeds -0.3 for COCCCNC(=O)[C@@]1(Sc2ccc(C)cc2)CC(=O)N(Cc2ccccc2Cl)[C@@H]1c1ccc(CO)cc1I
no

Determine whether measured composite z-score meets or exceeds -0.3 for O=C1C2C=CC(C(O)c3cc(C(F)(F)F)cc(C(F)(F)F)c3)N(Nc3ccccc3F)C2C(=O)N1c1ccccc1 (configuration not stated)
no

###

Experiment: binders of probe aHhip on microarray, primary screen, stem cell growth factor project, biochemical, small-molecule microarray, fluorescence 635/667 (AID 1087);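 note: score merges spot fluorescence at 667nm with spot signal to noise ratio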
Conditions: higher = more signal
composite z-score for assorted molecules

Which measured composite z-score value corresponds to [N-]=[N+]=NCc1ccccc1[C@H]1OC(c2ccc(OCCCO)cc2)=N[C@@]1(Cc1ccccc1)C(=O)NCCN1CCOCC1 ?
-0.0994

Which measured composite z-score value corresponds to C=CCC(OC(C)=O)[C@@H]1[C@@H](N(Cc2ccc(-c3cccc(C(F)(F)F)c3)o2)C(=O)c2cccc3ccccc23)c2cc(OCCCO)ccc2N1C(=O)Cc1ccc(OC)cc1 (some centres undefined) ?
-0.179

Which measured composite z-score value corresponds to CN(C)CCCNC(=O)[C@@H]1c2ccccc2C(=O)N(C2CCCCC2)[C@H]1c1ccc(CO)cc1 ?
-0.131

Which measured composite z-score value corresponds to COCC1C2CC[C@H]3C(OCc4ccc(OC)cc4)OC[C@]4(C)[C@H]3C2=C(CN4C(=O)OC(C)(C)C)[C@H](C)C1COC (some centres undefined) ?
-0.164
